# measuredOn: T1, human B7H3 (human, UniProt Q5ZPR3 29-466, limits assumed)
# T1 construct: also called human B7H3 protein
# T1 sequence (looked up): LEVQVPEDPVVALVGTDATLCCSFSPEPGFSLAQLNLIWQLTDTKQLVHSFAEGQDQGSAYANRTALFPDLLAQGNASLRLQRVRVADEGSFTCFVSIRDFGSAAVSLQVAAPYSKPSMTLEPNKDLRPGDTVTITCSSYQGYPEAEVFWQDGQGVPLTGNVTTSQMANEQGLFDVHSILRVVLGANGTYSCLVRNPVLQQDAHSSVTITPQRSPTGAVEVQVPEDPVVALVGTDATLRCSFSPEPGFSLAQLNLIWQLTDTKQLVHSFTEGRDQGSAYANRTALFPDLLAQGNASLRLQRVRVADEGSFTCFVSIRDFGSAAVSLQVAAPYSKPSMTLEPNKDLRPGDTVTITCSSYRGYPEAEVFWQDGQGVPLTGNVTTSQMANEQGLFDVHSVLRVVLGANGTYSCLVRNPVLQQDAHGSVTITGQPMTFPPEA
# protocolNotes: phage ELISA, cross-species
attributeMeasured: ELISA signal
API note: the answer field is a bare number with no unit suffix.

Known results for binders:
[
  {
    "binder": "RWG8 (VHH, Camel VHH; tag not described; also called camel antibody RWG8) VHH: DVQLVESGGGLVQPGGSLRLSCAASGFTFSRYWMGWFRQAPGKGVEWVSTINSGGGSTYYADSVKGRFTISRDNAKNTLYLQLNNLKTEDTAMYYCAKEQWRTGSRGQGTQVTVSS",
    "attributeMeasured": "ELISA signal",
    "value": 2.67
  },
  {
    "binder": "RWB12 (VHH, Camel VHH; tag not described; also called camel antibody RWB12) VHH: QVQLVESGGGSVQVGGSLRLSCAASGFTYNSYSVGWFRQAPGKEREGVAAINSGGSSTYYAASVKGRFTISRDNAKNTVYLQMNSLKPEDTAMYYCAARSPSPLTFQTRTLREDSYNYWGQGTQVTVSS",
    "attributeMeasured": "ELISA signal",
    "value": 2.74
  },
  {
    "binder": "RWC4 (VHH, Camel VHH; tag not described; also called camel antibody RWC4) VHH: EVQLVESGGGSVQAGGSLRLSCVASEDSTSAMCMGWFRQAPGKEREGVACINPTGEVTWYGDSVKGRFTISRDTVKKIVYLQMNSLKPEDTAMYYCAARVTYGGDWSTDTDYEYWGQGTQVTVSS",
    "attributeMeasured": "ELISA signal",
    "value": 2.5
  },
  {
    "binder": "RWH1 (VHH, Camel VHH; tag not described; also called camel antibody RWH1) VHH: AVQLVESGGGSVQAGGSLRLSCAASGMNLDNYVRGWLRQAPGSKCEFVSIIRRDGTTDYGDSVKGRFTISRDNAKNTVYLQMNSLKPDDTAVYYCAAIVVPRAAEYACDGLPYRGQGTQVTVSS",
    "attributeMeasured": "ELISA signal",
    "value": 2.03
  },
  {
    "binder": "RWD5 (VHH, Camel VHH; tag not described; also called RWDS [sic]; camel antibody RWD5) VHH: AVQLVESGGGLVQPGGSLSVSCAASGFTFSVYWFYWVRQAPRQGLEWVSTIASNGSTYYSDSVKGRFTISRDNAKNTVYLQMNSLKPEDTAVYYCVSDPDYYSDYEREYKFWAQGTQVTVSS",
    "attributeMeasured": "ELISA signal",
    "value": 2.13
  }
]

Reported ELISA signal ( RWC3 (VHH, Camel VHH; tag not described; also called camel antibody RWC3) VHH: QVQLVESGGGLVQPGGSLSVSCAASGFTFSVYWFYWVRQAPRQGLEWVSTIASNGSTYYSDSVKGRFTISRDNAKNTVYLQMNSLKPEDTAVYYCVSDPDYYSDYERAYKFWAQGTQVTVSS ) = 2.14

Reported ELISA signal ( RWG4 (VHH, Camel VHH; tag not described; also called camel antibody RWG4) VHH: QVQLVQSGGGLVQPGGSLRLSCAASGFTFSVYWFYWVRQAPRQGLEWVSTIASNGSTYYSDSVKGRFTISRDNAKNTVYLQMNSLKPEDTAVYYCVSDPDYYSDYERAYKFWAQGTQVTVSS ) = 1.72

Reported ELISA signal ( RWD9 (VHH, Camel VHH; tag not described; also called camel antibody RWD9) VHH: EVQLVESGGGLVQPGGSLSVSCAASGFTFSVYWFYWVRQAPRQGLEWVSTIASNGSTYYSDSVKGRFTISRDNAKNTVYLQMNSLKPEDTAVYYCVSDPDYYSDYERAYKFWAQGTQVTVSS ) = 2.21

Reported ELISA signal ( RWB2 (VHH, Camel VHH; tag not described; also called camel antibody RWB2) VHH: AVQLVDSGGGSVQAGGSLRLSCVVSGYAFSTYDMAWFRQAPGEKCEWVSTVTNNGRTFYADSVKGRFIISRDNAKNILYLQMNSLKPEDTAVYSCAAAGVRWRCASGGNEGTQVTVSS ) = 2.53
